The origin of these recorded values is patent US20230355720A1.

- System Name: human GLP-1 receptor (human, UniProt P43220 24-463)
- Protocol Description: cell-based or functional assay
Bridge positions count the residues as written; N and C are the ends. Square brackets hold non-standard residues; d marks the D form. Ends that are not written are not given here. * marks the point of attachment. Acetyl(2-(4-imidazolyl)) = O=C(Cc1c[nH]cn1)*; Aib = CC(C)(N)C(=O)O
Lab note - cut at 90% for In vitro activity (%) compared with native peptide, vs GLP-1: Fulfilled if strictly below, Not fulfilled if not.

Inquiry: Given the entry H[Aib]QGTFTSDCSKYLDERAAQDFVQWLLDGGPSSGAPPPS (not fully specified) [triple agonist of SEQ ID NO: 25] , would its reported In vitro activity (%) compared with native peptide, vs GLP-1 be below 90%?
Reply text: Fulfilled

Inquiry: Given the entry [Acetyl(2-(4-imidazolyl))]GQGTFTSDLSKQMDEERAREFIEWLLAQKPSSGAPPPSHG (not fully specified) [triple agonist of SEQ ID NO: 17] , would its reported In vitro activity (%) compared with native peptide, vs GLP-1 be below 90%?
Reply text: Fulfilled

Inquiry: Given the entry [Acetyl(2-(4-imidazolyl))]GQGTFTSDLSKQMDSEAQQLFIEWLKNGGPSSGAPPPSHG (not fully specified) [triple agonist of SEQ ID NO: 16] , would its reported In vitro activity (%) compared with native peptide, vs GLP-1 be below 90%?
Reply text: Fulfilled

Inquiry: Given the entry H[Aib]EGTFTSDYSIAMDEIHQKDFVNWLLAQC (bridge 16-20; not fully specified) [triple agonist of SEQ ID NO: 53] , would its reported In vitro activity (%) compared with native peptide, vs GLP-1 be below 90%?
Reply text: Not fulfilled
